// data source = BindingDB's records for doi:10.1016/j.ejmech.2023.115404

Target: Dual leucine zipper kinase (MAP3K12) (Homo sapiens)
Test: Binding affinity to DLK (unknown origin) assessed as inhibition constant
Measured Endpoint: Ki (nM)

P. CC(C)n1nc(Nc2cc(C(F)(F)F)ccn2)cc1C1CCNCC1
Q. CC(=O)N1CCC(c2cc(Nc3cc(C(F)(F)F)ccn3)nc(N3CCC(F)(F)C3)n2)CC1
[Q] Between P and Q , which one shows the larger Ki value? Pick one; state its label.
[A] P
